Every entry's value here was drawn from patent US20160251440A1.

# target: T1, human IL12Rβ1 extracellular domain Fc-fusion (human, UniProt P42701 24-545)
# T1 construct: extracellular domain; bought; also called IL12Rβ1-Fc; hIL-12Rβ1-Fc; not shown: Fc part, captured by anti-hIgG
# measurement-protocol: competition ELISA, coated IL-23 + IL12Rβ1-Fc
Form field: IC50 (one value per entry).
Kindly answer with a numeric value in nM, unit omitted.

- binder: "CD4#8-35GS-IL12Rb1#30 (bispecific antibody, also called BI#40; T023200040) EVQLVESGGGSVQPGGSLTLSCGTSGRTFNVMGWFRQAPGKEREFVAAVRWSSTGIYYTQYADSVKSRFTISRDNAKNTVYLEMNSLKPEDTAVYYCAADTYNSNPARWDGYDFRGQGTLVTVSSGGGGSGGGGSGGGGSGGGGSGGGGSGGGGSGGGGSEVQLVESGGGLVQTGGSLRLSCAASGRTPRLVAMGWFRQTPGKEREFVGEIILSKGFTYYADSVKGRFTISRVNAKNTITMYLQMNSLKSEDTAVYYCAGRQNWSGSPARTNEYEYWGQGTLVTVSS"
  IC50 [nM]: 3.6

Next up:
Recorded IC50 of IL12Rb1#30-35GS-CD4#8 (bispecific antibody, also called BI#46; T023200046) EVQLVESGGGLVQTGGSLRLSCAASGRTPRLVAMGWFRQTPGKEREFVGEIILSKGFTYYADSVKGRFTISRVNAKNTITMYLQMNSLKSEDTAVYYCAGRQNWSGSPARTNEYEYWGQGTLVTVSSGGGGSGGGGSGGGGSGGGGSGGGGSGGGGSGGGGSEVQLVESGGGSVQPGGSLTLSCGTSGRTFNVMGWFRQAPGKEREFVAAVRWSSTGIYYTQYADSVKSRFTISRDNAKNTVYLEMNSLKPEDTAVYYCAADTYNSNPARWDGYDFRGQGTLVTVSS , please.
3
